- SYSTEM UNDER TEST: HIV-1 NL4-3 Env on infected cells (HIV-1 group M subtype B, NL4-3 (pNL4-3 …, strain))

| BINDER | binding result |
| --- | --- |
| c5296 (antibody, V domains shown) VH: QVHLQESAPTLVKTSETLSLTCTVSGGQFYPYFYSWIRQSPGGKLQWIGRKYSTTGSMRTNPSLHTRVGMPLDHSRSQIGLTLSSITAADTGIYYCVRDIMRDFDSVDGSGGVYGGVDVWGRGTTVTVSS VL: QFLLTQPHSVSGSPGKTITISCTRSDGTFARNSVRWYLQRPGEGPTTVFFDGNRRASGIPDRFSASIAVSSASASLTISGLTPEDEADYYCESSDGGHHVVFGGGTKVTVL | binds |
| c13501 (antibody, V domains shown) VH: QVQLQQWGAGLLKPSETLSLTCAIYGGSFDDNSWTWIRQSPGGGLEWIGEIKYSGTSDYNLSLKSRITMSIDMSKKQFSLKLTSVTAADTGLYFCARARLSKFNSAWSWEHHYYMDVWATGTAVTVSS VL: DIQMTQSPSSLSASVGDRVTVTCRASQNIGNYLNWYQQKPGKAPKLLIFATSTLHGGVPSRFSGSGSGTDFTLSITNVQSEDVAIYFCQQSYSVPYSFGRGTSLDMR | binds |
| c13155 (antibody, V domains shown) VH: DVQLLESGGGLVQPGGSLRLSCAGSGYPFSTSDMGWVRQAPGKGLEWVAAIGRSGDGIHYAESVKGRFTISRDNSNNSIYLQMSDLRGDDTGVYYCAKSGWGWCKRGSCSLTVDYWGQGALVTVSS VL: EIVLTQSPATLSLSPGERATFSCRASQSVGSYLAWYQQKVGQSPRLLIYDSVNRGEGIPGRFSGRGVGTDFTLTIDAVEPEDFAVYYCQQRQIWPLTFGGGTKLEIK | binds |
